system: thyroid hormone receptor (endogenous TRα and TRβ); design: species or system GH3-TRE-Luc (rat pituitary); GH3-TRE-Luc luciferase reporter, antagonist mode against 1 nM T3, loss of signal, qHTS; conditions: read-out: Average AC50 (uM) GH3-TRE-Antag, antagonist mode, 1 nM T3, no GH3 cytotoxicity hit
Param label: returns label 1 when AC50 < 50 µM, returns label 0 otherwise, including exact equality.

[
  {
    "compound": "C=CC(=O)OCCC#N [2-Cyanoethyl prop-2-enoate]",
    "tested_on": "thyroid hormone receptor (endogenous TRα and TRβ)",
    "label_class": "label 0"
  },
  {
    "compound": "CC(C)Oc1ccc2c(=O)c(-c3ccccc3)coc2c1",
    "tested_on": "thyroid hormone receptor (endogenous TRα and TRβ)",
    "label_class": "label 1"
  },
  {
    "compound": "CN(C)c1ccc(SC#N)cc1 [4-(Dimethylamino)phenylthiocyanate]",
    "tested_on": "thyroid hormone receptor (endogenous TRα and TRβ)",
    "label_class": "label 0"
  },
  {
    "compound": "O=C1/C(=C/c2cccs2)CCC/C1=C\\c1cccs1",
    "tested_on": "thyroid hormone receptor (endogenous TRα and TRβ)",
    "label_class": "label 1"
  },
  {
    "compound": "CCOC(=O)NC(=S)Nc1ccccc1NC(=S)NC(=O)OCC [Thiophanate]",
    "tested_on": "thyroid hormone receptor (endogenous TRα and TRβ)",
    "label_class": "label 1"
  }
]

In: Record COc1ccc(N=[N+]([O-])c2ccc(OC)cc2)cc1 : is its AC50 strictly below 50 µM?
Out: label 1

In: Record Cc1oc(=O)oc1CN1CCN(c2cc3c(cc2F)c(=O)c(C(=O)O)c2n3C(C)S2)CC1 (centres unmarked) : is its AC50 strictly below 50 µM?
Out: label 0

In: Record C=CC(C)(CCC=C(C)C)OC(=O)/C=C/c1ccccc1 (centres unmarked) [Linalyl cinnamate] : is its AC50 strictly below 50 µM?
Out: label 0
